Sourced from patent US20200048328A1

- TESTED_TARGET: T1, rat serum albumin (rat, UniProt P02770 25-608)
- T1 construct: also called Rat SA; RSA
- T1 sequence (P02770 25-608 limits assumed): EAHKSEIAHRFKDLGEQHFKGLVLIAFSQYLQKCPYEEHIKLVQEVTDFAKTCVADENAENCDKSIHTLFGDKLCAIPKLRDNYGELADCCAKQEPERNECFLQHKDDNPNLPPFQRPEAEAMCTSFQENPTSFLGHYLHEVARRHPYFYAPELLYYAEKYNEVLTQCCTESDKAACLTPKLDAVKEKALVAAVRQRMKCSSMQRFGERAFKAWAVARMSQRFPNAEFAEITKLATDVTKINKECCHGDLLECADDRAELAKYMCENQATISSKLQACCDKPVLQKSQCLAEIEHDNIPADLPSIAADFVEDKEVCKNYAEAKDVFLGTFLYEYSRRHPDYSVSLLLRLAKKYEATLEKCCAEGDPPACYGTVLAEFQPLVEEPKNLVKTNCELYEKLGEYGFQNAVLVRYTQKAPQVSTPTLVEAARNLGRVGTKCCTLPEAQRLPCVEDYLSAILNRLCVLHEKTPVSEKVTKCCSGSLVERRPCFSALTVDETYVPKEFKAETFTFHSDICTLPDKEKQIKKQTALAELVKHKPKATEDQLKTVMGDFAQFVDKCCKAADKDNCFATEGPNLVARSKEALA
- MEASUREMENT_PROTOCOL: SPR, albumin immobilized, Adnectin 250 nM
REPORTED_ENDPOINT: koff (s⁻¹)

{"columns": ["BINDER", "MEASURED_RESULT"],
 "data": [
  ["PKE2 Adnectin 2629_E06 (designed binder, 10Fn3 domain with modified CD loop; the entry includes the His6 tail; also called ADX_2629_E06) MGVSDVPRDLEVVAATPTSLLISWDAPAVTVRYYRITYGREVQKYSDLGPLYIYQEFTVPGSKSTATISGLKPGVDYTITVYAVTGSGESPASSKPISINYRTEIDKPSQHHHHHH", 0.000767],
  ["5963_E02.PS5-2 (designed binder) MGVSDVPRDLEVVAATPTSLLISWDAPAVTVRYYRITYGREVQKYSDLGPLYIYQEFTVPGSKSCATISGLKPGVDYTITVYAVTGSGESPASSKPISINYRTPHHHHHH", 0.00076],
  ["5963_D01.PS5-2 (designed binder) MGVSDVPRDLEVVCATPTSLLISWDAPAVTVRYYRITYGREVQKYSDLGPLYIYQEFTVPGSKSTATISGLKPGVDYTITVYAVTGSGESPASSKPISINYRTPHHHHHH", 0.000858],
  ["5916_E03.PS5-2 (designed binder) MGVSDVPRDLEVVAATPTSLLISWDAPAVTVRYYRITYGREVQKYSDLGPLYIYQEFTVPGSKSTATISGLKPGVDYTITVYAVTGSGESPASSKPISINYRTPCHHHHHH", 0.000786]
]}
